System: PC-3 cells
Assay: XTT cytotoxicity assay, prostate cancer cells
Type: cell-based, human
Details: versus normal cells HEK-293
quantity: Selectivity index (SI), prostate cancer (PC-3)
Would you mind answering with just the numeric figure?

Record excerpt, results attached:
compound=COc1ccc(C2=NC/C(=C/C#Cc3ccccc3)SC(c3ccccc3)=C2)cc1 target_entity="PC-3 cells" result_value=1.37
compound=C(#Cc1ccccc1)/C=C1/CN=C(c2ccsc2)C=C(c2ccccc2)S1 target_entity="PC-3 cells" result_value=1.03
compound=Fc1cccc(C2=NC/C(=C/C#Cc3ccccc3)SC(c3ccccc3)=C2)c1 target_entity="PC-3 cells" result_value=0.79
compound="N.N.[Cl][Pt][Cl] [cisplatin, Cisplatin, reference compound]" target_entity="PC-3 cells" result_value=1.17
compound=CC(C)(C)c1ccc(C2=NC/C(=C/C#Cc3ccccc3)SC(c3ccccc3)=C2)cc1 target_entity="PC-3 cells" result_value=1.20

**Q:** Look up Selectivity index (SI), prostate cancer (PC-3) of Brc1ccccc1C1=CC(c2ccccc2)=NC/C(=C/C#Cc2ccccc2)S1 and report it.
**A:** 0.37

**Q:** Look up Selectivity index (SI), prostate cancer (PC-3) of Cc1ccc(C2=NC/C(=C/C#Cc3ccccc3)SC(c3ccccc3)=C2)cc1 and report it.
**A:** 0.96

**Q:** Look up Selectivity index (SI), prostate cancer (PC-3) of Cc1ccc(C#C/C=C2/CN=C(c3ccccc3)C=C(c3ccccc3)S2)cc1 and report it.
**A:** 1.09

**Q:** Look up Selectivity index (SI), prostate cancer (PC-3) of Clc1ccc(C2=NC/C(=C/C#Cc3ccccc3)SC(c3ccccc3Br)=C2)cc1 and report it.
**A:** 0.87

**Q:** Look up Selectivity index (SI), prostate cancer (PC-3) of Clc1ccc(C2=CC(c3ccccc3)=NC/C(=C/C#Cc3ccccc3)S2)cc1 and report it.
**A:** 0.64

**Q:** Look up Selectivity index (SI), prostate cancer (PC-3) of Cc1cc(C2=NCC(=CC#Cc3ccccc3)SC(c3ccc(Cl)cc3)=C2)ccc1F and report it.
**A:** 3.21

**Q:** Look up Selectivity index (SI), prostate cancer (PC-3) of Brc1ccc(C2=NC/C(=C/C#Cc3ccccc3)SC(c3ccccc3)=C2)cc1 and report it.
**A:** 0.49

**Q:** Look up Selectivity index (SI), prostate cancer (PC-3) of C(#Cc1ccccc1)/C=C1/CN=C(c2ccccc2)C=C(c2ccccc2)S1 and report it.
**A:** 2.37
